Tested on: Chinese hamster ovary (CHO) cells
ASSAY: In vitro genotoxicity screen in CHO cells
Type: cell-based
STUDY_CONDITIONS: approximately 3 hours exposure in the dark, dilutions 1-1000 μg/ml
Form field: genotoxic (toxic) concentration (one value per entry).
The reply should contain only the number, in µg/mL.

| COMPOUND | genotoxic (toxic) concentration / µg/mL |
| --- | --- |
| Cc1oc2c(C)c3oc(=O)cc(C)c3cc2c1CNCCCCN | 100 |

Query: Tell me the measured genotoxic (toxic) concentration of Cc1oc2c(C)c3oc(=O)cc(C)c3cc2c1CN [AMT, 4′-Aminomethyl-4,5′,8-trimethylpsoralen, reference compound] , please.
Result: 30

Query: Now consider Cc1oc2c(C)c3oc(=O)cc(C)c3cc2c1COCCN and answer again.
Result: 100

Query: Also check Cc1oc2c(CN)c3oc(=O)cc(C)c3cc2c1C [8-aminomethyl-4,4′, 5′-trimethylpsoralen, reference compound]
Result: 10

Data origin, for the record: patent US6469052B2
